Recorded values, source patent US12600717B2.

- TGT: KRAS G12D (Homo sapiens, UniProt P01116, G12D)
- Sequence (P01116 1-188 isoform P01116-2 G12D): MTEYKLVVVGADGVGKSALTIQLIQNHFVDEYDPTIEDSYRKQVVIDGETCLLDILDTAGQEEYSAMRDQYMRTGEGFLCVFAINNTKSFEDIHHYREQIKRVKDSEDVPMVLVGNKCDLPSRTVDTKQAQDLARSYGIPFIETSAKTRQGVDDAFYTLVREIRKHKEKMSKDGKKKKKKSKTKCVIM
- TEST_SUMMARY: GDP-GTP exchange assay (bodipy-GDP/GppNHp, SOS1), KRAS G12D
- APPLIED_CONDITIONS: bodipy-loaded KRAS G12D 2.5 nM, 4 hours pre-incubation with inhibitor, 2 hours after GppNHp/SOS1; read-out: G12D_exchange IC50
pIC50: −log10 of the molar value.
READOUT_TYPE: pIC50

Req: Form field: reported pIC50 of CN(C)C1CN(c2nc3c(F)c(-c4cc(O)cc5ccccc45)c(CCC#N)cc3c3c2nc(CCC(=O)N2CC4(CCOCC4)C2)n3C2C3CNC2C3)C1 (single isomer, unassigned)
Resp: ≥ 7.00

* * *

Listing of recorded IC50 by entry.
- TGT: KRAS G12V (Homo sapiens, UniProt P01116, G12V)
- Sequence (P01116 1-188 isoform P01116-2 G12V): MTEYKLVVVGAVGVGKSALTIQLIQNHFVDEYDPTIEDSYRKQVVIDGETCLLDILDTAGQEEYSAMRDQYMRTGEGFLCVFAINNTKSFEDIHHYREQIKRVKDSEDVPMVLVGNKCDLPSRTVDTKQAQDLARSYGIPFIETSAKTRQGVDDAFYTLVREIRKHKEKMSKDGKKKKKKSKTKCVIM
- TEST_SUMMARY: GDP-GTP exchange assay (bodipy-GDP/GppNHp, SOS1), KRAS G12V
- Format: biochemical
- APPLIED_CONDITIONS: bodipy-loaded KRAS G12V 2.5 nM, 3 hours incubation after adding GppNHp-SOS1; read-out: G12V_exchange IC50

CCc1nc2c(-c3ccn4ncnc4c3)nc3c(F)c(-c4cc(O)cc5ccccc45)c(CCC#N)cc3c2n1C1C2CNC1C2 (single isomer, unassigned) [Example 21a] :: ≤ 0.1 µM
CCc1nc2c(N3CC(N(C)C)C3)nc3c(F)c(-c4cc(O)cc5ccccc45)c(-c4cnco4)cc3c2n1C1C2CNC1C2 (single isomer, unassigned) :: 5 to 10 µM
CN(C)C(=O)CCc1nc2c(N3CC(N(C)C)C3)nc3c(OCc4ccccc4)c(-c4cccc5ccc(F)cc45)c(CCC#N)cc3c2n1[C@@H]1[C@@H]2CN[C@H]1C2 (relative stereo) :: 5 to 10 µM
CC(=O)N1CC[C@H](n2c(=O)[nH]c3c(O[C@@H](C)[C@@H]4CCCN4C)nc4c(F)c(-c5cccc6cccc(C#N)c56)c(Cl)cc4c32)C[C@H]1CC#N :: ≤ 0.1 µM

Req: Entry under review: CN(C)C(=O)CCc1nc2c(N3CC(N(C)C)C3)nc3c(-c4cnn(-c5ccccn5)c4)c(-c4cc(O)cc5ccccc45)c(CCC#N)cc3c2n1C1C2CNC1C2 (centres unmarked) . Reported IC50?
Resp: 5 to 10 µM

* * *

Each entry below carries its recorded IC50.
- TGT: KRAS G12V (Homo sapiens, UniProt P01116, G12V)
- TEST_SUMMARY: GDP-GTP exchange assay (bodipy-GDP/GppNHp, SOS1), KRAS G12V
- APPLIED_CONDITIONS: bodipy-loaded KRAS G12V 2.5 nM, 3 hours incubation after adding GppNHp-SOS1; read-out: G12V_exchange IC50

CN(C)C(=O)CCc1nc2c(N3CC(N(C)C)C3)nc3c(F)c(-c4cc(O)cc(Cl)c4C4CC4)ccc3c2n1C1C2CNC1C2 (stereo not drawn) [Example 11] :: 1000 to 5000 nM
CCc1nc2c(-c3cc(C(=O)NC)ccc3F)nc3c(F)c(-c4cc(O)cc5ccccc45)c(CCC#N)cc3c2n1C1C2CNC1C2 (single isomer, unassigned) [Example 17a] :: ≤ 100 nM

--- query ---
Req: Looking for the measured IC50 of CN(C)C(=O)CCc1nc2c(N3CC(N(C)C)C3)nc3c(F)c(-c4c(O)ccc(Cl)c4Cl)c(CCC#N)cc3c2n1C1C2CNC1C2 (stereo not drawn) [Example 10] , can you help?
Resp: 100 to 1000 nM

* * *

Below, each entry is listed alongside its reported pIC50.
- TGT: KRAS G12D (Homo sapiens, UniProt P01116, G12D)
- TEST_SUMMARY: GDP-GTP exchange assay (bodipy-GDP/GppNHp, SOS1), KRAS G12D
- APPLIED_CONDITIONS: bodipy-loaded KRAS G12D 2.5 nM, 4 hours pre-incubation with inhibitor, 2 hours after GppNHp/SOS1; read-out: G12D_exchange IC50
- Description: The inhibitor potency of the exemplified compounds was determined in a fluorescence based guanine nucleotide exchange assay, which measures the exchange of bodipy-GDP (fluorescently labeled GDP) for GppNHp (Non-hydrolyzable GTP analog) to generate the active state of KRAS in the presence of SOS1 (guanine nucleotide exchange factor). […] Fluorescence intensities were measured on a PheraStar plate reader instrument (BMG Labtech) with excitation at 485 nm and emission at 520 nm. […]
pIC50: −log10 of the molar value.

# annotated cases, reported pIC50 shown
CCc1nc2c(OCC34CCCN3CC(F)C4)nc3c(F)c(-c4c[nH]c5ccc(F)cc45)c(CCC#N)cc3c2n1C1C2CNC1C2 (mixture of isomers) :: ≥ 7.00
CCc1nc2c(C)nc3c(F)c(-c4cc(O)cc5ccccc45)c(CCC#N)cc3c2n1C1C2CNC1C2 (single isomer, unassigned) [Example 23a] :: ≥ 7.00

Below: the item to evaluate.
Req: Look up pIC50 with KRAS G12D (Homo sapiens, UniProt P01116, G12D) for this compound: CCc1nc2c(N3CC(N(C)C)C3)nc3c(F)c(-c4cc(O)cc5ccccc45)c(C(CC#N)n4cc(CO)cn4)cc3c2n1C1C2CNC1C2 (single isomer, unassigned)
Resp: ≥ 7.00

* * *

- TGT: KRAS G12V (Homo sapiens, UniProt P01116, G12V)
- TEST_SUMMARY: GDP-GTP exchange assay (bodipy-GDP/GppNHp, SOS1), KRAS G12V
- APPLIED_CONDITIONS: bodipy-loaded KRAS G12V 2.5 nM, 3 hours incubation after adding GppNHp-SOS1; read-out: G12V_exchange IC50
pIC50: −log10 of the molar value.
Below is a list of entries, each paired with its recorded pIC50 value.

Examples from the recorded data:
CCc1nc2c(-c3ccnc(N4CCN(C)CC4)c3)nc3c(F)c(-c4cc(O)cc5ccccc45)c(CCC#N)cc3c2n1C1C2CNC1C2 (single isomer, unassigned) [Example 22a] :: 6.00 to 7.00
C[C@H](Oc1nc2c(F)c(-c3cccc4cccc(C#N)c34)c(Cl)cc2c2c1ncn2[C@H]1CCN(C(N)=O)[C@H](CC#N)C1)[C@@H]1CCCN1C :: ≥ 7.00
CN(C)C1CN(c2nc3c(F)c(-c4cc(O)cc5ccccc45)c(CCC#N)cc3c3c2nc(-c2ccn(-c4ccccc4)n2)n3C2C3CNC2C3)C1 (single isomer, unassigned) [Example 34a] :: ≥ 7.00

Req: What measured pIC50 goes with CCc1nc2c(N3CC(N(C)C)C3)nc3c(F)c(-c4cc(O)cc5ccccc45)c(C(CC#N)n4cccn4)cc3c2n1C1C2CNC1C2 (single isomer, unassigned) ?
Resp: 6.00 to 7.00

Req: Lookup CC(=O)N1CC[C@H](n2cnc3c(O[C@@H](C)[C@@H]4CCCN4C)nc4c(F)c(-c5cccc6cccc(C#N)c56)c(Cl)cc4c32)C[C@H]1CC#N (single isomer, unassigned) [Example 39b]
Resp: ≥ 7.00

Req: Same again, this time with CCc1nc2c(-c3ccc(=O)n(CC)c3)nc3c(F)c(-c4cc(O)cc5ccccc45)c(CCC#N)cc3c2n1C1C2CNC1C2 (single isomer, unassigned)
Resp: ≥ 7.00

Req: Repeat with CCc1nc2c(-c3ccc(C(=O)NC)nc3)nc3c(F)c(-c4cc(O)cc5ccccc45)c(CCC#N)cc3c2n1C1C2CNC1C2 (single isomer, unassigned) [Example 19a]
Resp: ≥ 7.00

Req: Would you kindly repeat that for CN(C)C(=O)CCc1nc2c(N3CC(N(C)C)C3)nc3c(F)c(-c4cc(O)cc5ccccc45)cc(CO)c3c2n1[C@@H]1[C@@H]2CN[C@H]1C2 (relative stereo) ?
Resp: 5.30 to 6.00

Req: Note, next up: CN(C)C1CN(c2nc3c(F)c(-c4cc(O)cc5ccccc45)c(CCC#N)cc3c3c2nc(CCC(=O)N2CC4(CCOCC4)C2)n3C2C3CNC2C3)C1 (single isomer, unassigned)
Resp: ≥ 7.00

Req: And then CCc1nc2c(OCC34CCCN3CC(F)C4)nc3c(F)c(-c4c[nH]c5ccc(F)cc45)c(CCC#N)cc3c2n1C1C2CNC1C2 (mixture of isomers) , what is it?
Resp: 6.00 to 7.00

* * *

Measured pIC50 by item
- TGT: KRAS G12V (Homo sapiens, UniProt P01116, G12V)
- TEST_SUMMARY: GDP-GTP exchange assay (bodipy-GDP/GppNHp, SOS1), KRAS G12V
- APPLIED_CONDITIONS: bodipy-loaded KRAS G12V 2.5 nM, 3 hours incubation after adding GppNHp-SOS1; read-out: G12V_exchange IC50
pIC50: −log10 of the molar value.

Known pIC50 results, listed for orientation:
CN(C)C(=O)CCc1nc2c(N3CC(N(C)C)C3)nc3c(F)c(-c4nc(N)ccc4C(F)(F)F)c(CCC#N)cc3c2n1C1C2CNC1C2 (single isomer, unassigned) [Example 32a] :: 5.00 to 5.30
CN(C)C(=O)CCc1nc2c(N3CC(N(C)C)C3)nc3c(F)c(-c4cccc5c4CC(F)(F)CC5)c(CCC#N)cc3c2n1[C@@H]1[C@@H]2CN[C@H]1C2 (relative stereo) :: 5.30 to 6.00
CCc1nc2c(-c3ncco3)nc3c(F)c(-c4cc(O)cc5ccccc45)c(CCC#N)cc3c2n1C1C2CNC1C2 (single isomer, unassigned) [Example 20a] :: 6.00 to 7.00
Cc1cc2c(nc(N3CC(N(C)C)C3)c3nc(CCC(=O)N4CCN(c5ncccn5)CC4)n(C4C5CNC4C5)c32)c(F)c1-c1cc(O)cc2ccccc12 (single isomer, unassigned) :: 5.30 to 6.00

Let's switch to this compound now.
Req: Lab request: please report pIC50 under test system KRAS G12V (Homo sapiens, UniProt P01116, G12V) for `C[C@H](Oc1nc2c(F)c(-c3cccc4cccc(C#N)c34)c(Cl)cc2c2c1ncn2[C@H]1CCN(C(=O)CC#N)[C@H](CC#N)C1)[C@@H]1CCCN1C`
Resp: ≥ 7.00
